Biological target: ferroportin (Homo sapiens)
Sequence (Q9NP59 1-571): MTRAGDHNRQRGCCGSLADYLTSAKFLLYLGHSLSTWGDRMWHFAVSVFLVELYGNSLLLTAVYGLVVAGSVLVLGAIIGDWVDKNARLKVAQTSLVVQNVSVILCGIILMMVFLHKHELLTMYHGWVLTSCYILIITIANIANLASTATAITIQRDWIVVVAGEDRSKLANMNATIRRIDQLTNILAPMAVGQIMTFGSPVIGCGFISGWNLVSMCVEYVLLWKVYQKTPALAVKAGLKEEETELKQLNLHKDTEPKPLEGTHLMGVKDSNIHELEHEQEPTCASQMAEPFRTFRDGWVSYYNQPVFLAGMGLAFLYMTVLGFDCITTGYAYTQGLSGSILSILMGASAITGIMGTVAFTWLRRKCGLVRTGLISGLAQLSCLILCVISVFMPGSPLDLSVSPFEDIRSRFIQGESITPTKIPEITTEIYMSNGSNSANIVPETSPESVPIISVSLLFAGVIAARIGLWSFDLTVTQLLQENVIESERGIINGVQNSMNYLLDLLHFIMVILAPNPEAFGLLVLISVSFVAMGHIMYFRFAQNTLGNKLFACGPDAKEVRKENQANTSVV
Assay: FPN activity assay: internalization/degradation of ferroportin-GFP in stably transfected HEK293 cells (loss of GFP fluorescence)
Assay type: cell-based
Details: Table 6A; read-out: FPN EC50
Experimental: Following internalization, the ferroporin protein is degraded. A retro inverse peptide is a peptide with a reversed sequence in all D amino acids. An example is that Hy-Glu-Thr-His-NH2 becomes Hy-DHis-DThr-DGlu-NH2. The EC50 of these reference compounds for ferroportin internalization/degradation was determined according to the FPN activity assay described above. These peptides served as control standards.
Starred links: 1 amine or outer side, 2 acyl side, 3 side chain; linkers in the order of their positions; H or OH if unused. Non-standard residues stand in square brackets, D forms with d. Residues, ends and D or L forms follow the SMILES beside them. Groups on a side chain read outwards from the residue. *: point of attachment. Ala(1H-tetrazol-5-yl) = N[C@@H](Cc1nnn[nH]1)C(=O)O; X8 = O=C([C@H](CCc1nn[nH]n1)N[*:1])[*:2]; Dip = N[C@H](C(=O)O)C(c1ccccc1)c1ccccc1; His(τ-Me) = Cn1cnc(C[C@H](N)C(=O)O)c1; Palmitoyl = CCCCCCCCCCCCCCCC(=O)*; β3hF = N[C@H](CC(=O)O)Cc1ccccc1; NMeL = CN[C@@H](CC(C)C)C(=O)O; PEG4 = NCCOCCOCCOCCOCCC(=O)O; Lauroyl = CCCCCCCCCCCC(=O)*; Isovaleryl = CC(C)CC(=O)*; NHBn = c1ccc(CN*)cc1; Ahx = NCCCCCC(=O)O
Field: label. Allowed values: T (DC50 < 100 nM) or F (DC50 >= 100 nM).

Q: hey, is DC50 for CCCCCCCCCCCCCCCC(=O)NCCCCCC(=O)NCCCC[C@H](NC(=O)[C@@H](NC(=O)[C@H](CC(C)C)NC(=O)[C@@H]1CCCN1C(=O)[C@@H](NC(=O)[C@H](Cc1c[nH]cn1)NC(=O)[C@@H](NC(=O)[C@H](CCC(=O)O)NC(=O)CC(C)C)[C@@H](C)O)C(c1ccccc1)c1ccccc1)[C@@H](C)CC)C(=O)N(C)[C@@H](CC(C)C)C(N)=O [compound 140] (Isovaleryl-ETH[Dip]PLIK([Ahx-Palmitoyl])[NMeL]-NH2) lower than 100 nM or not?
Ans: T

Q: hey, is DC50 for CCCCCCCCCCCCCCCC(=O)NCCCCCC(=O)NCCCC[C@H](NC(=O)[C@@H](NC(=O)[C@H](C)NC(=O)[C@@H]1CCCN1C(=O)[C@@H](NC(=O)[C@H](Cc1c[nH]cn1)NC(=O)[C@@H](NC(=O)[C@H](CCC(=O)O)NC(=O)CC(C)C)[C@@H](C)O)C(c1ccccc1)c1ccccc1)[C@@H](C)CC)C(=O)NCc1ccccc1 [compound 52] (Isovaleryl-ETH[Dip]PAIK([Ahx-Palmitoyl])-NHBn) lower than 100 nM or not?
Ans: F

Q: hey, is DC50 for CCCCCCCCCCCCCCCC(=O)NCCOCCOCCOCCOCCC(=O)NCCCC[C@H](NC(=O)[C@@H](NC(=O)[C@H](C)NC(=O)[C@@H]1CCCN1C(=O)[C@@H](NC(=O)[C@H](Cc1c[nH]cn1)NC(=O)[C@@H](NC(=O)[C@H](CCC(=O)O)NC(=O)CC(C)C)[C@@H](C)O)C(c1ccccc1)c1ccccc1)[C@@H](C)CC)C(=O)N[C@H](CC(N)=O)Cc1ccccc1 [compound 95] (Isovaleryl-ETH[Dip]PAIK([PEG4-Palmitoyl])[β3hF]-NH2) lower than 100 nM or not?
Ans: T

Q: hey, is DC50 for CC[C@H](C)[C@H](NC(=O)[C@H](C)NC(=O)[C@@H]1CCCN1C(=O)[C@@H](NC(=O)[C@H](Cc1cn(C)cn1)NC(=O)[C@@H](NC(=O)[C@H](Cc1nn[nH]n1)NC(=O)CC(C)C)[C@@H](C)O)C(c1ccccc1)c1ccccc1)C(=O)N[C@@H](CCCCNC(C)=O)C(=O)N[C@H](CC(=O)N[C@H](CCCCN)C(=O)N[C@@H](C)C(N)=O)Cc1ccccc1 [compound 39] (Isovaleryl-[Ala(1H-tetrazol-5-yl)]T[His(τ-Me)][Dip]PAIK(Ac)[β3hF][dK]A-NH2) lower than 100 nM or not?
Ans: F

Q: hey, is DC50 for CC[C@H](C)[C@H](NC(=O)[C@H](C)NC(=O)[C@@H]1CCCN1C(=O)[C@@H](NC(=O)[C@H](Cc1c[nH]cn1)NC(=O)[C@@H](NC(=O)[C@H](CCC(=O)O)NC(=O)CC(C)C)[C@@H](C)O)C(c1ccccc1)c1ccccc1)C(=O)N[C@@H](CCCCNC(C)=O)C(N)=O [compound 12] (Isovaleryl-ETH[Dip]PAIK(Ac)-NH2) lower than 100 nM or not?
Ans: F

Q: hey, is DC50 for CCCCCCCCCCCC(=O)NCCCCCC(=O)NCCCC[C@H](NC(=O)[C@@H](NC(=O)[C@H](C)NC(=O)[C@@H]1CCCN1C(=O)[C@@H](NC(=O)[C@H](Cc1c[nH]cn1)NC(=O)[C@@H](NC(=O)[C@H](CCC(=O)O)NC(=O)CC(C)C)[C@@H](C)O)C(c1ccccc1)c1ccccc1)[C@@H](C)CC)C(=O)N[C@H](CC(N)=O)Cc1ccccc1 [compound 105] (Isovaleryl-ETH[Dip]PAIK([Ahx-Lauroyl])[β3hF]-NH2) lower than 100 nM or not?
Ans: F

Q: hey, is DC50 for CC[C@H](C)[C@H](NC(=O)[C@@H](NC(=O)[C@@H]1CCCN1C(=O)[C@@H](NC(=O)[C@H](Cc1c[nH]cn1)NC(=O)[C@@H](NC(=O)[C@H](CCC(=O)O)NC(=O)CNCC(=O)O)[C@@H](C)O)C(c1ccccc1)c1ccccc1)[C@@H](C)CC)C(=O)N[C@@H](CCCCNC(C)=O)C(=O)N[C@H](CC(N)=O)Cc1ccccc1 lower than 100 nM or not?
Ans: F

Q: hey, is DC50 for CC[C@H](C)[C@H](NC(=O)[C@H](C)NC(=O)[C@@H]1CCCN1C(=O)[C@@H](NC(=O)[C@H](Cc1cn(C)cn1)NC(=O)[C@@H](NC(=O)[C@H](CCc1nn[nH]n1)NC(=O)CC(C)C)[C@@H](C)O)C(c1ccccc1)c1ccccc1)C(=O)N[C@@H](CCCCNC(C)=O)C(=O)N[C@H](CC(=O)N[C@H](CCCCN)C(=O)N[C@@H](C)C(N)=O)Cc1ccccc1 [compound 40] (Isovaleryl-[X8]T[His(τ-Me)][Dip]PAIK(Ac)[β3hF][dK]A-NH2) lower than 100 nM or not?
Ans: F

Q: hey, is DC50 for CCCCCCCCCCCCCCCC(=O)NCCCCCC(=O)NCCCC[C@H](NC(=O)C[C@H](Cc1ccccc1)NC(=O)[C@@H](CCCCN)NC(=O)[C@@H](NC(=O)[C@H](C)NC(=O)[C@@H]1CCCN1C(=O)[C@@H](NC(=O)[C@H](Cc1c[nH]cn1)NC(=O)[C@@H](NC(=O)[C@H](CCC(=O)O)NC(=O)CC(C)C)[C@@H](C)O)C(c1ccccc1)c1ccccc1)[C@@H](C)CC)C(N)=O [compound 3] (Isovaleryl-ETH[Dip]PAI[dK][β3hF]K([Ahx-Palmitoyl])-NH2) lower than 100 nM or not?
Ans: T
